System: CCRF-CEM
protocol conditions: human
value kind: CC50 (µM)

INSERT INTO measurements (substance_smiles, measurement_units, relation_symbol, measured) VALUES
  ('COC(=O)N[C@H](C(=O)N1CCC[C@H]1c1ncc(-c2ccc(Br)cc2)[nH]1)C(C)C', 'µM', '=', 50),
  ('COC(=O)N[C@H](C(=O)N1CCC[C@H]1c1ncc(-c2ccc([N+](=O)[O-])cc2)[nH]1)C(C)C', 'µM', '>', 100),
  ('COC(=O)N[C@H](C(=O)N1CCC[C@H]1c1ncc(-c2ccc(-c3ccc(C(=O)OC)cc3)cc2)[nH]1)C(C)C', 'µM', '=', 61),
  ('COC(=O)N[C@H](C(=O)N1CCC[C@H]1c1ncc(-c2ccccc2)[nH]1)C(C)C', 'µM', '>', 100),
  ('COC(=O)N[C@H](C(=O)N1CCC[C@H]1c1nc(Cl)c(-c2ccc(-c3ccc(C(F)(F)F)cc3)cc2)[nH]1)C(C)C', 'µM', '=', 10),
  ('COC(=O)N[C@H](C(=O)N1CCC[C@H]1c1ncc(-c2ccc(OC)cc2)[nH]1)C(C)C', 'µM', '>', 100),
  ('COC(=O)N[C@H](C(=O)N1CCC[C@H]1c1ncc(-c2ccc(-c3ccc(N=[N+]=[N-])cc3)cc2)[nH]1)C(C)C', 'µM', '=', 11),
  ('COC(=O)N[C@H](C(=O)N1CCC[C@H]1c1ncc(-c2ccc(-c3ccc(S(C)(=O)=O)cc3)cc2)[nH]1)C(C)C', 'µM', '=', 54),
  ('COC(=O)N[C@H](C(=O)N1CCC[C@H]1c1nc(-c2ccc(-c3ccc(C(F)(F)F)cc3)cc2)c[nH]1)C(C)C', 'µM', '=', 12),
  ('COC(=O)N[C@H](C(=O)N1CCC[C@H]1c1ncc(-c2ccc(-c3ccccc3)cc2)[nH]1)C(C)C', 'µM', '=', 70),
  ('COC(=O)N[C@H](C(=O)N1CCC[C@H]1c1ncc(-c2ccc(S(=O)(=O)c3ccccc3)cc2)[nH]1)C(C)C', 'µM', '>', 100),
  ('COC(=O)Nc1ccc(-c2cnc([C@@H]3CCCN3C(=O)[C@@H](NC(=O)OC)C(C)C)[nH]2)cc1', 'µM', '>', 100),
  ('C=CC[C@H](NC(C)=O)C(=O)N1CCC[C@H]1c1ncc(-c2ccc(-c3ccccc3)cc2)[nH]1', 'µM', '=', 73);

----------
assay procedure: in vitro
protocol conditions: human, pbmc
value kind: CC50

INSERT INTO results (substance_smiles, measured) VALUES
  ('COC(=O)N[C@H](C(=O)N1CCC[C@H]1c1ncc(-c2ccc(-c3cccc(O)c3)cc2)[nH]1)C(C)C', '> 100 µM'),
  ('COC(=O)N[C@H](C(=O)N1CCC[C@H]1c1ncc(-c2ccc(NS(C)(=O)=O)cc2)[nH]1)C(C)C', '> 100 µM'),
  ('COC(=O)N[C@H](C(=O)N1CCC[C@H]1c1ncc(-c2ccc(C(F)(F)F)cc2)[nH]1)C(C)C', '> 100 µM');

----------
System: Vero
protocol conditions: chlorocebus sabaeus
Each entry below carries its reported CC50.
value kind: CC50 (µM)

INSERT INTO measurements (substance_smiles, measurement_units, relation_symbol, measured) VALUES
  ('COC(=O)N[C@H](C(=O)N1CCC[C@H]1c1ncc(-c2ccc(N=[N+]=[N-])cc2)[nH]1)C(C)C', 'µM', '>', 100),
  ('COC(=O)N[C@H](C(=O)N1CCC[C@H]1c1ncc(-c2ccc(S(=O)(=O)c3ccccc3)cc2)[nH]1)C(C)C', 'µM', '>', 100),
  ('COC(=O)N[C@H](C(=O)N1CCC[C@H]1c1ncc(-c2ccc(C)cc2)[nH]1)C(C)C', 'µM', '>', 100),
  ('COC(=O)N[C@H](C(=O)N1CCC[C@H]1c1ncc(-c2ccc(OC)cc2)[nH]1)C(C)C', 'µM', '>', 100),
  ('COC(=O)N[C@H](C(=O)N1CCC[C@H]1c1ncc(-c2ccc([N+](=O)[O-])cc2)[nH]1)C(C)C', 'µM', '>', 100),
  ('COC(=O)N[C@H](C(=O)N1CCC[C@H]1c1ncc(-c2ccc(C(F)(F)F)cc2)[nH]1)C(C)C', 'µM', '=', 26),
  ('COC(=O)N[C@H](C(=O)N1CCC[C@H]1c1ncc(-c2ccc(-c3ccc(C#N)cc3)cc2)[nH]1)C(C)C', 'µM', '=', 33),
  ('COC(=O)N[C@H](C(=O)N1CCC[C@H]1c1nc(Cl)c(-c2ccc(-c3ccc(C(F)(F)F)cc3)cc2)[nH]1)C(C)C', 'µM', '=', 10),
  ('COC(=O)N[C@H](C(=O)N1CCC[C@H]1c1ncc(-c2ccccc2)[nH]1)C(C)C', 'µM', '>', 100),
  ('COC(=O)N[C@H](C(=O)N1CCC[C@H]1c1ncc(-c2ccc(N)cc2)[nH]1)C(C)C', 'µM', '>', 100),
  ('COC(=O)N[C@H](C(=O)N1CCC[C@H]1c1ncc(-c2ccc(-c3ccc(S(C)(=O)=O)cc3)cc2)[nH]1)C(C)C', 'µM', '=', 6),
  ('COC(=O)N[C@H](C(=O)N1CCC[C@H]1c1ncc(-c2ccc(Br)cc2)[nH]1)C(C)C', 'µM', '=', 48),
  ('COC(=O)N[C@H](C(=O)N1CCC[C@H]1c1ncc(-c2ccc(OC(F)(F)F)cc2)[nH]1)C(C)C', 'µM', '=', 30),
  ('COC(=O)N[C@H](C(=O)N1CCC[C@H]1c1nc(Cl)c(-c2ccc(N=[N+]=[N-])cc2)[nH]1)C(C)C', 'µM', '=', 12),
  ('COC(=O)N[C@H](C(=O)N1CCC[C@H]1c1nc(I)c(-c2ccc(N=[N+]=[N-])cc2)[nH]1)C(C)C', 'µM', '=', 14.2),
  ('COC(=O)N[C@H](C(=O)N1CCC[C@H]1c1ncc(-c2ccc(-c3ccc(C)cc3)cc2)[nH]1)C(C)C', 'µM', '=', 14);
